Source of measurements: patent US10065954B2

- SUBJECT_OF_TEST: purified recombinantly expressed human SSAO (Homo sapiens, UniProt Q16853)
- Sequence (Q16853 whole entry): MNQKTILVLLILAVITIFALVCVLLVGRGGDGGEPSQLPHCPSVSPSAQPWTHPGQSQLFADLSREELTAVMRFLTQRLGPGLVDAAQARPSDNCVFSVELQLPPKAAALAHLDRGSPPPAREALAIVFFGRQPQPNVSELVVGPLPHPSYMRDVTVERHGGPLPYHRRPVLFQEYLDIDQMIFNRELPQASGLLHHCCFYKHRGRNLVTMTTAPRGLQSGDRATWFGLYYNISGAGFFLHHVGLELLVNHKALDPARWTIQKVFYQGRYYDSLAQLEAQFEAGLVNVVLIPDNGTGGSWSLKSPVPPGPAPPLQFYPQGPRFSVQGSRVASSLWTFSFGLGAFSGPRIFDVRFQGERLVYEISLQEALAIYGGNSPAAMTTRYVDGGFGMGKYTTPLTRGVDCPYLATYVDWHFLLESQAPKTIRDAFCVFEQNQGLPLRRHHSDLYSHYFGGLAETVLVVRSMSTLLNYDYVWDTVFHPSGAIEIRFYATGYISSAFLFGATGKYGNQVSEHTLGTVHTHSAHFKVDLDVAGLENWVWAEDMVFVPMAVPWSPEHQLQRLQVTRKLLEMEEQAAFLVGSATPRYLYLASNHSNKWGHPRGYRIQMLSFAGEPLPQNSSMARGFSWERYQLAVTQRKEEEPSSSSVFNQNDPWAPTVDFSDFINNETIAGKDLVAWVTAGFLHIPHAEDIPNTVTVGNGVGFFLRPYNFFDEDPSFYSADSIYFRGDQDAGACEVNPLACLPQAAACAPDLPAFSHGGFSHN
- TEST_DESCRIPTION: SSAO enzyme inhibition assay (benzylamine substrate; hydrogen peroxide/HRP-coupled or 14C-aldehyde detection)
- RUN_PARAMETERS: SSAO inhibitory activity; recombinant human SSAO, RT
pIC50: −log10 of the molar value.
Please go through the items and note down their pIC50.

Answered examples (10):
{"COMPOUND": "Cc1ccc(-n2c(-c3ccc(N4CCOCC4)cc3F)nc3ccncc32)cn1 [Compound 33]", "SUBJECT_OF_TEST": "purified recombinantly expressed human SSAO (Homo sapiens, UniProt Q16853)", "pIC50": "6.70 to 7.30"}
{"COMPOUND": "Cc1ccc(-n2c(-c3ccc(NCCN4CCOCC4)nc3)nc3ccncc32)cc1 [Compound 21]", "SUBJECT_OF_TEST": "purified recombinantly expressed human SSAO (Homo sapiens, UniProt Q16853)", "pIC50": "> 7.30"}
{"COMPOUND": "Cc1ccc(-n2c(-c3ccc(N4CCC(F)CC4)cc3)nc3ccncc32)cn1 [Compound 37]", "SUBJECT_OF_TEST": "purified recombinantly expressed human SSAO (Homo sapiens, UniProt Q16853)", "pIC50": "6.70 to 7.30"}
{"COMPOUND": "Cc1ccc(-n2c(-c3cnc(N4CCOCC4)cc3C)nc3ccncc32)nc1 [Compound 13]", "SUBJECT_OF_TEST": "purified recombinantly expressed human SSAO (Homo sapiens, UniProt Q16853)", "pIC50": "6.70 to 7.30"}
{"COMPOUND": "Fc1ccc(-n2c(-c3ccc(NC4CC4)nc3)nc3ccncc32)cc1 [Compound 22]", "SUBJECT_OF_TEST": "purified recombinantly expressed human SSAO (Homo sapiens, UniProt Q16853)", "pIC50": "> 7.30"}
{"COMPOUND": "Fc1ccc(-n2c(-c3ccc(NC4CCOCC4)nc3)nc3ccncc32)cc1 [Compound 15]", "SUBJECT_OF_TEST": "purified recombinantly expressed human SSAO (Homo sapiens, UniProt Q16853)", "pIC50": "> 7.30"}
{"COMPOUND": "Cc1cc(N2CCOCC2)ncc1-c1nc2ccncc2n1-c1ccc(F)cn1 [Compound 14, tris(trifluoroacetic acid)]", "SUBJECT_OF_TEST": "purified recombinantly expressed human SSAO (Homo sapiens, UniProt Q16853)", "pIC50": "5.92 to 6.70"}
{"COMPOUND": "Cc1ccc(-n2c(-c3ccc(N4CCCC4)cc3)nc3ccncc32)cn1 [Compound 31]", "SUBJECT_OF_TEST": "purified recombinantly expressed human SSAO (Homo sapiens, UniProt Q16853)", "pIC50": "> 7.30"}
{"COMPOUND": "Cc1ccc(-n2c(-c3cnc(N4CCCC4)nc3)nc3ccncc32)cc1 [Compound 29]", "SUBJECT_OF_TEST": "purified recombinantly expressed human SSAO (Homo sapiens, UniProt Q16853)", "pIC50": "> 7.30"}
{"COMPOUND": "CCN(CC)c1ncc(-c2nc3ccncc3n2-c2ccc(C)cn2)cn1 [Compound 7]", "SUBJECT_OF_TEST": "purified recombinantly expressed human SSAO (Homo sapiens, UniProt Q16853)", "pIC50": "6.70 to 7.30"}

Lab note: each compound below needs its pIC50 filled in.
1. Cc1cc(N2CCOCC2)ncc1-c1nc2ccncc2n1-c1ccc(F)cc1F [Compound 2]
2. Cc1ccc(-n2c(-c3ccc(NC4CCOCC4)cc3)nc3ccncc32)cn1 [Compound 35]
3. Cc1cc(N2CCOCC2)ncc1-c1nc2ccncc2n1-c1ccc(Cl)cc1 [Compound 9]

Output line:
1: > 7.30; 2: 5.92 to 6.70; 3: > 7.30

---

- SUBJECT_OF_TEST: purified recombinantly expressed human SSAO (Homo sapiens, UniProt Q16853)
- TEST_DESCRIPTION: SSAO enzyme inhibition assay (benzylamine substrate; hydrogen peroxide/HRP-coupled or 14C-aldehyde detection)
- RUN_PARAMETERS: SSAO inhibitory activity; recombinant human SSAO, RT
- Experimental: All primary assays were performed at RT. with purified recombinantly expressed human SSAO. Enzyme was prepared essentially as described in Öhman et al. (Protein Expression and Purification 46 (2006) 321-331). […] SSAO activity was assayed using […] benzylamine and analysed by measuring radioactive benzaldehyde. […] Phase separation occurred instantly and activity was read in a Topcount scintillation counter (Perkin-Elmer). […] Data was analysed as above.
OBSERVATION_TYPE: IC50

{"SMILES_NOTATION": "CCN(CC)c1ncc(-c2nc3ccncc3n2-c2ccc(F)cc2)cn1", "OBSERVATION_TYPE": "IC50", "TEST_VALUE": "< 50 nM"}

Lab note: each compound below needs its IC50 filled in.
1. Cc1ccc(-n2c(-c3cnc(N4CCOCC4)cc3C)nc3ccncc32)c(F)c1
2. Cc1ccc(-n2c(-c3ccc(NC4CCOCC4)nc3)nc3ccncc32)cc1
3. Cc1ccc(-n2c(-c3ccc(N4CCCC4)c(F)c3)nc3ccncc32)cn1
4. Clc1ccc(-n2c(-c3ccc(Cl)nc3)nc3ccncc32)cc1
5. Fc1ccc(-n2c(-c3cnc(NC4CCOCC4)nc3)nc3ccncc32)c(F)c1
6. Fc1ccc(-n2c(-c3ccc(N4CCSCC4)nc3)nc3ccncc32)cc1
7. Cc1ccc(-n2c(-c3ccc(N4CCCC4)cc3)nc3ccncc32)nc1

Output line:
["< 50 nM", "< 50 nM", "50 to 200 nM", "200 to 1200 nM", "50 to 200 nM", "< 50 nM", "50 to 200 nM"]

Lab note: each compound below needs its IC50 filled in.
1. Cc1ccc(-n2c(-c3ccc(N4CCOCC4)cc3)nc3ccncc32)cn1
2. Cc1ccc(-n2c(-c3ccc(NC(C)C)nc3)nc3ccncc32)cc1
3. Cc1ccc(-n2c(-c3ccc(N4CCCC4)nc3)nc3ccncc32)cn1

Output line:
1: 50 to 200 nM; 2: < 50 nM; 3: < 50 nM
